# assay comment: Bioavailability in a mouse model (blood level after oral gavage)
# Assay type: in vivo
# details: whole blood, 100 mg/kg oral gavage in olive oil, blood sample 6 h after gavage, quantified by HPLC
endpoint name: concentration at 6 h

Look up concentration at 6 h of CCCCCCCCCCCCCCCCc1nc(N2CCC2)nc(OC2CCC2)c1O [Compound 12] and report it.
~4 µM

###

endpoint name: melting point

[2H]C(CCCCCCCCCCCCCCC)c1nc(N(C([2H])([2H])[2H])C([2H])([2H])[2H])nc(OC([2H])([2H])[2H])c1O (stereo not shown) [Compound 2]
75 to 76 °C
CCCCCCCCCCCCCCCCc1nc(N2CCC2)nc(OCC)c1O [Compound 9]
79 to 80 °C
CCCCCCCCCCCCCCCCc1nc(N2CCC2)nc(OC)c1O [Compound 8]
59 to 60 °C
CCCCCCCCCCCCCCCCc1nc(N2CCCC2)nc(OC2CCC2)c1O [Compound 14]
74 to 76 °C
CCCCCCCCCCCCCCCOc1nc(N2CCC2)nc(C)c1O [Compound 11]
83 to 85 °C

Record melting point for all entries; do not skip any.
1. CCCCCCCCCCCCCCCCc1nc(N2CCCCC2)nc(OC2CCC2)c1O [Compound 15]
2. [2H]C([2H])([2H])N(c1nc(CCCCCCCCCCCCCCCC)c(O)c(OC2CCC2)n1)C([2H])([2H])[2H] [Compound 13]

1. 78 to 79 °C
2. 72 to 73 °C
